The values you see were collected from paper PMC5540273.

Test system: PIP5K1A;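 further: KINOMEscan kinase panel screen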
Details: concentration: 1 μM, replicates: in singlicate; n = 1
Task for the reader: assign each of the following compounds its reported %Inh.
The reply should be a number in %, with the unit left off.

Prompt line: // returns reported %Inh for input Cc1ccc(NC(=O)c2cccc(C#N)c2)cc1-c1ccc(C(=O)Nc2ccncc2)cc1
Response line: 0

Prompt line: Next entry: O=C(CCO)NCCn1ccc2ncnc(Nc3ccc(Oc4cccc(C(F)(F)F)c4)c(Cl)c3)c21
Response line: 0

Prompt line: Can you handle COc1ccc(Nc2nccc(N3CCC(NC(=O)c4cccc(NC(C)=O)c4)C3)n2)cc1 (stereo not drawn) next?
Response line: 49

Prompt line: Check COc1ccc(-c2oc3ncnc(N)c3c2-c2ccc(OC)cc2)cc1 too.
Response line: 48

Prompt line: Likewise for Cc1cc(N2CCC(NS(=O)(=O)c3ccc(F)cc3)CC2)nc(Nc2cccc(C#N)c2)n1.O=C(O)C(F)(F)F ?
Response line: 0

Prompt line: Same question, Cc1ccc(O)cc1Nc1cc(C(F)(F)F)nc2ccc(-c3ccncc3)cc12 this time
Response line: 0

Prompt line: And what about the compound FC(F)(F)c1ccc(-c2nn3ncccc3c2-c2ccnc(Nc3cccc(C(F)(F)F)c3)n2)cc1 ?
Response line: 53

Prompt line: Same question, Nc1nc(-c2ccc3c(N)n[nH]c3c2)cc(N2CCC[C@@H](C(=O)Nc3ccccc3)C2)n1.O=C(O)C(F)(F)F.O=C(O)C(F)(F)F this time
Response line: 0

Prompt line: Note, next up: O=C(Nc1ccccc1F)NC1CCN(c2ccnc(Nc3ccc(F)cc3)n2)C1 (stereo not drawn)
Response line: 0
